The reported measurements were obtained from patent US20170275275A1.

Test: Aqueous solubility, shake-flask method
Assay type: physicochemical
Details: aqueous buffer, thermodynamic from solid, pH 5.0, shaken 18 hours at room temperature
Counter-ions that a name gives are not always drawn.
READOUT NAME: solubility at 18 h

Field solubility at 18 h (entry O=S(=O)(Nc1nncs1)c1cc(Cl)c(Oc2ccc(-c3cccc(C(F)(F)F)c3)cc2-c2ccnc(CNCCC3CCNCC3)c2)cc1F [Example 6, bis-formate salt] ) reads > 2300 µg/mL

###

Assay: Aqueous solubility, shake-flask method
Assay type: physicochemical
Settings: aqueous buffer, thermodynamic from solid, pH 7.4, shaken 18 hours at room temperature
Structures can show the parent of a compound that is named as a salt.
READOUT NAME: solubility at 18 h

MOLECULE	READOUT NAME	OBSERVED RESULT
COCCOCCOCCOCCOCCOCCOCCOCCOCCOCCOCCOCCC(=O)N1CCC(CCNCc2cc(-c3cc(-c4cccc(C(F)(F)F)c4)ccc3Oc3ccc(S(=O)(=O)Nc4ncns4)cc3C#N)ccn2)CC1	solubility at 18 h	> 2300 µg/mL

The record that follows has no solubility at 18 h shown yet.
Field solubility at 18 h (entry N#Cc1cc(S(=O)(=O)Nc2ncns2)ccc1Oc1ccc(-c2cccc(C(F)(F)F)c2)cc1-c1ccnc(CNCCC2CCNCC2)c1 [Example 18b, trihydrochloride salt] ) reads > 10000 µg/mL
